Cited source: patent US20220127281A1

# Target entity: GDP loaded biotinylated KRas^G12C protein (Homo sapiens, UniProt P01116, G12C)
# Construct: biotin (biotinylated); made in house
# Sequence (P01116 1-188 isoform P01116-2 G12C): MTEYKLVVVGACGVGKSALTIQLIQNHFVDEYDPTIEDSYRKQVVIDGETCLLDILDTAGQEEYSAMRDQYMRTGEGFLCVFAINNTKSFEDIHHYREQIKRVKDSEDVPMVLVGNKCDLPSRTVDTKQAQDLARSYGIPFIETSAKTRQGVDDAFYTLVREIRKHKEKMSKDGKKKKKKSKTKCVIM
# Assay notes: KRasG12C functional assay
# Type: biochemical
# Protocol conditions: HTRF FRET readout of SOS-mediated nucleotide exchange and GST-Raf RBD binding; samples incubated for 4 hrs; read-out: KRasG12C functional assay IC50 value
# Procedure: KRasG12C Functional Assay All enzyme and substrate solutions were prepared in assay buffer containing 20 mM HEPES (pH 7.5), 5 mM MgCl2, 150 mM NaCl, and 0.01% Tween 20. […] This is detected simultaneously via the specific binding interaction between active GTPγS KRas^G12C with GST-Raf RBD which brings the europium and XL665 into close proximity enabling an increased FRET signal to be detected on a Pherastar (BMG) plate reader equipped with the HTRF filter module. […]
Output Y for records whose IC50 is lower than 2 µM, N for records at or above 2 µM.

C=CC(=O)N1CCN2c3ncnc4cc(-c5ccccc5OC(F)(F)F)c(Cl)c(c34)OC[C@@H]2C1 [Example 35]; Y
C=CC(=O)N1CCN2c3ncnc4cc(-c5cccc6ncoc56)c(Cl)c(c34)OC[C@@H]2C1 [Example 58]; N
C=CC(=O)N1CCN2c3ncnc4cc(-c5ccc(F)cc5C)c(Cl)c(c34)OC[C@@H]2C1 [Example 64]; Y
C=CC(=O)N1CCN2c3ncnc4cc(-c5ccc(F)cc5F)c(Cl)c(c34)OC[C@@H]2C1 [Example 66]; Y

Answer whether the compound C=CC(=O)N1CCN2c3ncnc4cc(-c5cccc6ccc(=O)n(C)c56)c(Cl)c(c34)OC[C@@H]2C1 [Example 44] has IC50 strictly less than 2 µM
N

Answer whether the compound C=CC(=O)N1CCN2c3ncnc4cc(-c5cccc6c(C)n(C)nc56)c(Cl)c(c34)OC[C@@H]2C1 [Example 37] has IC50 strictly less than 2 µM
N

Answer whether the compound C=CC(=O)N1CCN2c3ncnc4cc(-c5c(O)cccc5C#N)c(Cl)c(c34)OC[C@@H]2C1 (single isomer, unassigned) [Example 20] has IC50 strictly less than 2 µM
Y

Answer whether the compound C=CC(=O)N1CCN2c3ncnc4cc(-c5cccc6c5ncn6C)c(Cl)c(c34)OC[C@@H]2C1 [Example 45] has IC50 strictly less than 2 µM
Y

Answer whether the compound C=CC(=O)N1CCN2c3ncnc4cc(-c5cc(F)ccc5OC)c(Cl)c(c34)OC[C@@H]2C1 [Example 51] has IC50 strictly less than 2 µM
N

Answer whether the compound C=CC(=O)N1CCN2c3ncnc4cc(-c5cccc6c5oc(=O)n6C)c(Cl)c(c34)OC[C@@H]2C1 [Example 22] has IC50 strictly less than 2 µM
Y

Answer whether the compound C=CC(=O)N1CCN2c3nc(NCCN(C)C)nc4cc(-c5c(C)ccc6[nH]ncc56)c(Cl)c(c34)OC[C@@H]2C1 [Example 78] has IC50 strictly less than 2 µM
Y

Answer whether the compound C=CC(=O)N1CCN2c3ncnc4cc(-c5c(O)cccc5OC)c(Cl)c(c34)OC[C@@H]2C1 (single isomer, unassigned) [Example 17] has IC50 strictly less than 2 µM
N

Answer whether the compound C=CC(=O)N1CCN2c3ncnc4cc(-c5c(C)ccc6[nH]ncc56)cc(c34)OC[C@@H]2C1 [Example 5] has IC50 strictly less than 2 µM
Y

Answer whether the compound C=CC(=O)N1CCN2c3ncnc4cc(-c5ccc(O)c(C#N)c5)c(Cl)c(c34)OC[C@@H]2C1 [Example 56] has IC50 strictly less than 2 µM
N

Answer whether the compound CN(C)C/C=C/C(=O)N1CCN2c3ncnc4cc(-c5c(O)cccc5F)c(Cl)c(c34)OC[C@@H]2C1 [Example 12] has IC50 strictly less than 2 µM
Y
